# ASSAYED_SYSTEM: Histamine H1 receptor (Homo sapiens, UniProt P35367)
# Sequence (P35367 whole entry): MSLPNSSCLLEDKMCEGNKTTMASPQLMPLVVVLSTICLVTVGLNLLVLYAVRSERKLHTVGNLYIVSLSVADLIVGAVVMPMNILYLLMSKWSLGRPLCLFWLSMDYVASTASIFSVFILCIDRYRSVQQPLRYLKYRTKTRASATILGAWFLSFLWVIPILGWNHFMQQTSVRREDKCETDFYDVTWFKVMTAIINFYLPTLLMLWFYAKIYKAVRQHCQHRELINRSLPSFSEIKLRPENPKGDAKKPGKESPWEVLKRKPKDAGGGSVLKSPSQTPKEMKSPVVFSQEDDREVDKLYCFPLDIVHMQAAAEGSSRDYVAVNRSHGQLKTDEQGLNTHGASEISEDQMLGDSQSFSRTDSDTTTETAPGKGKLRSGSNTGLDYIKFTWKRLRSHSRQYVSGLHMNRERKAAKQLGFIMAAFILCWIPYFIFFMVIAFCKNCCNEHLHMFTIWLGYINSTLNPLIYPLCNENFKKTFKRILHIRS
pKi: −log10 of the molar value.
MEASURED_QUANTITY: pKi

# returns recorded pKi (system: Histamine H1 receptor (Homo sapiens, UniProt P35367)) for Cc1cc2nc(SCCN(C)C)[nH]c2cc1C
< 5.00
